Known viability at 28.5 h, 10 µM of a selection of compounds
- experiment-summary: in vitro
- measurement-context: human, hela cells, % viability

compound: CC[C@@H]1C(=O)OC[C@@H]1Cc1cncn1C [CBK005338C]
viability at 28.5 h, 10 µM, %: 85.3

compound: O=[N+]([O-])c1ccc(CN2CCC(Oc3nccnc3OCCN3CCOCC3)CC2)cc1 [CBK082923T]
viability at 28.5 h, 10 µM, %: 91

compound: Cc1nn(C(C)CC(=O)NCCN2CCC(C)CC2)c(C)c1Cl (centres unmarked)
viability at 28.5 h, 10 µM, %: 90.2

compound: O=C(CN1CCCC1=O)NC(Cc1cccs1)c1nccs1 (centres unmarked)
viability at 28.5 h, 10 µM, %: 104

compound: COc1cc(NC(=O)c2ccco2)c(C(=O)O)cc1OC
viability at 28.5 h, 10 µM, %: 91.6
